Values from patent US20230324404A1

biological target: T1, ZIKV VLP (zika virus like particle, isolate Z1106033) (Zika virus isolate Z1106033 (Suriname, …, UniProt A0A024B7W1 123-794))
T1 construct: also called zika VLP; ZIKV VLPs
MEASURED QUANTITY: EC50 (µg/mL)
Write it as a number; the unit µg/mL goes unstated.

Q. Please look up its EC50: Anti-ZIKV #6 (IgG2c kappa, Clone ZV-67) (antibody, V domains shown) VH: QAQLQQSGTGLARPGASVKLSCKASGYTFTSYGISWVTQRAGQGLEWIGVIYPRSGNTYYNEKFRGKATLTADKSSSSAYMELRGLTAEDSAVYFCARENYGSVYWGQGTTLTVSS VL: DIVMTQSQKFMSTSVGDRVSITCKASQNVGTAVAWYQQKPGQSPKLLIYSASNRYTGVPDRFTGSGSGTDFTLTISNMQSEDLADYFCQQFSSYPYTFGGGTKLEIK
A. 0.677

Q. Please look up its EC50: Anti-ZIKV #7 (IgG2a kappa, Clone ZKA-64) (antibody, V domains shown) VH: QVQLVQSGAEVKKPGASVKVSCKASGYTFTGYHIDWVRQARGQGLEWMGRINPNSGGTNYAQKFQGRVTMTRDTSISTAYMQLSRLRSDDSAVYYCARMSSSIWGFDHWGQGTLVTVSS VL: EIVMTQSPATLSVSPGERATLSCRASQSVLINLAWYQQKPGQAPRLLIYGASSRATGIPARFSGSGSGTEFTLTISSLQSEDFAVYYCQQYNDWPPITFGQGTRLEIK
A. 1.18
